target: Ecdysone receptor (Aedes aegypti, UniProt P49880+Q9GSG8); test: Agonist activity at Aedes aegypti ecdysone receptor expressed in mammalian cells by reporter gene assay
Sequence (P49880 whole entry): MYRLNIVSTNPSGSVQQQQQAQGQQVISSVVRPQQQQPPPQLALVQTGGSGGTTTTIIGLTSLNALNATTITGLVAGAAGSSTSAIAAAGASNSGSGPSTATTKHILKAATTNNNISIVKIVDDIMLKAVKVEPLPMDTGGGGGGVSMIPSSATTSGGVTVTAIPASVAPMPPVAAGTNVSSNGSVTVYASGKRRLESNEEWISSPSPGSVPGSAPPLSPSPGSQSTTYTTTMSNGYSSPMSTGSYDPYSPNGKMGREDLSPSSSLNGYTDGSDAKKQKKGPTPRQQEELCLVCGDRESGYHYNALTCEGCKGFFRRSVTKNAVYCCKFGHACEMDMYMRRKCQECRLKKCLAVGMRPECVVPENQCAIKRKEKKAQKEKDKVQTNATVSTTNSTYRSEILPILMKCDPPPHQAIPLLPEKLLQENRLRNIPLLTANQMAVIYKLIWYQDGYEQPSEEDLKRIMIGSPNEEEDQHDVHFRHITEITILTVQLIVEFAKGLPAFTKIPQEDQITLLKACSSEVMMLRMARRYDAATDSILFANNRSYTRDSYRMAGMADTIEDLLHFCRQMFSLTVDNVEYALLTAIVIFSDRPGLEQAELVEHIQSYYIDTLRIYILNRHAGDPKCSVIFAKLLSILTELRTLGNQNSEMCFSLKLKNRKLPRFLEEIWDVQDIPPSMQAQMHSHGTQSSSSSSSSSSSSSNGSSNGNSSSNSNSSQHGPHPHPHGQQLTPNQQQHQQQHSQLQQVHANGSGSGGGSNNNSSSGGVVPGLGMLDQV
Sequence (Q9GSG8 whole entry): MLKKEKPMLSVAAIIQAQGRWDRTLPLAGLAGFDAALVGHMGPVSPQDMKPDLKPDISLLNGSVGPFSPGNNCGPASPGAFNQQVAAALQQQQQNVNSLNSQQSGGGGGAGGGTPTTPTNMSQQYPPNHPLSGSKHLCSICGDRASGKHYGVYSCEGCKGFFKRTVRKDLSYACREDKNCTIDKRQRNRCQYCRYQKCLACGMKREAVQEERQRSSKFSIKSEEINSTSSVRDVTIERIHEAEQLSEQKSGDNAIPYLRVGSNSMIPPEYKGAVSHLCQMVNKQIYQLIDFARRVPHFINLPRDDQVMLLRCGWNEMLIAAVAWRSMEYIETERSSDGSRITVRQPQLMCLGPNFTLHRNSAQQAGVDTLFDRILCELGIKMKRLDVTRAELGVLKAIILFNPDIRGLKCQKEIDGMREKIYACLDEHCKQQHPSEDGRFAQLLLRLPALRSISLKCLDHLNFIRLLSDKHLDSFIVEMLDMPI
pEC50: −log10 of the molar value.
observable: pEC50

* Cc1ccc(NC2CC(C)N(C(=O)c3ccc(Cl)cc3)c3ccc(C)cc32)cc1 (stereo not drawn) | 5.67
* CC1CC(Nc2ccc(F)cc2)c2cc(F)ccc2N1C(=O)c1ccc(Cl)cc1 (stereo not drawn) | 6.19
* Cc1ccc(NC2CC(C)N(C(=O)c3ccc(C)cc3)c3ccc(C)cc32)cc1 (stereo not drawn) | 5.30

====

The following compounds are listed with their measured EC50 values.
biological target: Ecdysone receptor (Drosophila melanogaster, UniProt P20153+P34021); experiment: Agonist activity at ecdysone receptor in Drosophila melanogaster S2 cells after 24 hr by luciferase reporter gene assay; format: cell-based
Sequence (P34021 whole entry): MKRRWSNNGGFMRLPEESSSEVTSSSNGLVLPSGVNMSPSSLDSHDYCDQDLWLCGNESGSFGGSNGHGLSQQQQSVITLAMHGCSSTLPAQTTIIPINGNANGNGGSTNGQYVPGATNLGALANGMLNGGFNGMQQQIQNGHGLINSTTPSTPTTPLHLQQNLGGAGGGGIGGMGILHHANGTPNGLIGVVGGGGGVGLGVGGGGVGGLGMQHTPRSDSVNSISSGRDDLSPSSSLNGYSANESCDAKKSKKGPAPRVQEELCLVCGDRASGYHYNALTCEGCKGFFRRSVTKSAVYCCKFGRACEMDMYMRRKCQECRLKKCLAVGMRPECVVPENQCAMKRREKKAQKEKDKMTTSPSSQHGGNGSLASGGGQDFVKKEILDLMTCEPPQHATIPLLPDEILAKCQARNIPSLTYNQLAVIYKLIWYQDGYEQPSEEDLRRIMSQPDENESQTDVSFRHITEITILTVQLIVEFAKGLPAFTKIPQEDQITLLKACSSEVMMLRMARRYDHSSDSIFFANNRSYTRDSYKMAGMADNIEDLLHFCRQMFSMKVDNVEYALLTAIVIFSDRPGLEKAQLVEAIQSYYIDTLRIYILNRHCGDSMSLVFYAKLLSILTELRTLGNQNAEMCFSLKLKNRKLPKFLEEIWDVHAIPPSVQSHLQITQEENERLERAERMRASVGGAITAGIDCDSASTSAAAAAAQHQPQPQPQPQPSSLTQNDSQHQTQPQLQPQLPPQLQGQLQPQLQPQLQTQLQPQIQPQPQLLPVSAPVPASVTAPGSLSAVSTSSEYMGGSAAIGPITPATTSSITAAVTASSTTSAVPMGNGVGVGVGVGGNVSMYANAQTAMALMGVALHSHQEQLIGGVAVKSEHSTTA
Sequence (P20153 whole entry): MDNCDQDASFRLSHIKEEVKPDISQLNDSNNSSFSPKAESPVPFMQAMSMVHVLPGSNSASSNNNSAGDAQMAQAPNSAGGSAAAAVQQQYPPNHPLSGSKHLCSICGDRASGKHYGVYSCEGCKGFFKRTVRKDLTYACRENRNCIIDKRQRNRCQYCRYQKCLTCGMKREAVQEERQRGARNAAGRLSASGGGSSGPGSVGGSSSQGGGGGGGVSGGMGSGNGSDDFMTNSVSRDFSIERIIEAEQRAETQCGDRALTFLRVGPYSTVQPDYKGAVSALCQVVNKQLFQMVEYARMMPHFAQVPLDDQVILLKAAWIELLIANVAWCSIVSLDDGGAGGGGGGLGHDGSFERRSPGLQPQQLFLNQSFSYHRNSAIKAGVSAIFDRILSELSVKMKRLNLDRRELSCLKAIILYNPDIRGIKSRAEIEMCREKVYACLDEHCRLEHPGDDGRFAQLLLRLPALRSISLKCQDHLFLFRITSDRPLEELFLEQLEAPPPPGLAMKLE
observable: EC50 (µM)

* Cc1cc(C)cc(C(=O)N(NC(=O)c2ccc(Cl)cc2)C(C)(C)C)c1 | 16.6
* COc1cccc(C(=O)NN(C(=O)c2ccccc2Cl)C(C)(C)C)c1C | 16.6
* CC(C)(C)N(NC(=O)c1ccc(Cl)cc1)C(=O)c1ccccc1Cl | 81.3
* CC(C)(C)N(NC(=O)c1ccc(Cl)cc1)C(=O)c1ccccc1 [HALOFENOZIDE] | 7.76

====

target: Ecdysone receptor (Bombyx mori); assay: Agonist activity at ecdysone receptor in Bombyx mori Bm5 cells after 24 hr by luciferase reporter gene assay
pEC50: −log10 of the molar value.
observable: pEC50

• CC(C)(C)N(NC(=O)c1ccccc1)C(=O)c1ccccc1Cl = 7.12
• CC(C)(C)N(NC(=O)c1cccc(Br)c1)C(=O)c1ccccc1Cl = 6.72
• Cc1ccc(C(=O)NN(C(=O)c2ccccc2Cl)C(C)(C)C)c(C)c1 = 6.79
• CC(C)(C)N(NC(=O)c1ccccc1Cl)C(=O)c1ccccc1Cl = 6.48
• CCCc1ccc(C(=O)NN(C(=O)c2ccccc2Cl)C(C)(C)C)cc1 = 8.04
• CCCCCCCCCC(=O)NN(C(=O)c1cc(C)cc(C)c1)C(C)(C)C = 5.81
• Cc1ccccc1C(=O)NN(C(=O)c1ccccc1Cl)C(C)(C)C = 7.14
• CC(C)(C)N(NC(=O)c1ccccc1)C(=O)c1ccccc1 = 6.37
• CC(C)(C)N(NC(=O)c1ccccc1)C(=O)c1ccccc1F = 6.51
• CCCCCC(=O)NN(C(=O)c1cc(C)cc(C)c1)C(C)(C)C = 7.10

====

molecular target: Ecdysone receptor (Bombyx mori, UniProt P49881); experiment: Agonist activity at ecdysone receptor in Bombyx mori Bm5 cells after 24 hr by luciferase reporter gene assay
Sequence (P49881 whole entry): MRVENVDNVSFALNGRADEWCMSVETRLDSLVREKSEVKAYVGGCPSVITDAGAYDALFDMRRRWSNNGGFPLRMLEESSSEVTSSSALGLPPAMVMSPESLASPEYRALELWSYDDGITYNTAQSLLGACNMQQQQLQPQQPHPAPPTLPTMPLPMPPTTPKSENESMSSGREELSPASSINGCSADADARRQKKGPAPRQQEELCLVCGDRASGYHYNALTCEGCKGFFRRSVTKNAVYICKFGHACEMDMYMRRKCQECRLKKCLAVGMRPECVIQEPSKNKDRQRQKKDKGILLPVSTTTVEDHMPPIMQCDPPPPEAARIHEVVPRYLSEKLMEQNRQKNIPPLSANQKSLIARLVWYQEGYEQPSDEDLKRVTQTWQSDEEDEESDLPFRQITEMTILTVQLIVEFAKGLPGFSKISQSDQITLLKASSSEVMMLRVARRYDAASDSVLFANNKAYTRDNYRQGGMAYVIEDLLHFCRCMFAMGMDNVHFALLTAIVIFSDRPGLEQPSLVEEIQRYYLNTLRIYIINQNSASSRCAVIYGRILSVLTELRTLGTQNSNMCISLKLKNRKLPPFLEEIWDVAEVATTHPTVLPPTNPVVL
pEC50: −log10 of the molar value.
Label Yes when pEC50 is at or above 7; otherwise label No.

* CC(C)(C)N(NC(=O)c1cccc(Cl)c1Cl)C(=O)c1ccccc1Cl | Yes
* CC(C)(C)N(NC(=O)c1ccc(I)cc1)C(=O)c1ccccc1Cl | Yes
* Cc1ccc(C(=O)NN(C(=O)c2cc(C)cc(C)c2)C(C)(C)C)cc1 | Yes
* Cc1ccc(C(=O)NN(C(=O)c2ccccc2Cl)C(C)(C)C)cc1 | Yes
* CCc1ccc(C(=O)NN(C(=O)c2ccccc2)C(C)(C)C)cc1 | Yes
* CCCCN(NC(=O)c1ccccc1)C(=O)c1ccccc1 | No
* CC(C)CN(NC(=O)c1ccccc1)C(=O)c1ccccc1 | No
* CCc1ccc(C(=O)NN(C(=O)c2ccccc2Cl)C(C)(C)C)cc1 | Yes
* CC(C)(C)N(NC(=O)c1ccc(Br)cc1)C(=O)c1ccccc1Cl | Yes
* CC(C)(C)N(NC(=O)c1ccccc1)C(=O)c1ccccc1[N+](=O)[O-] | No
* CCc1ccc(C(=O)NN(C(=O)c2cc(C)cc(C)c2)C(C)(C)C)cc1 [TEBUFENOZIDE] | Yes
* CCCCCC(=O)N(NC(=O)c1ccc(CC)cc1)C(C)(C)C | No
* CCc1ccc(C(=O)NN(C(=O)CCC(C)C)C(C)(C)C)cc1 | No
* Cc1cc(C)cc(C(=O)NN(C(=O)CCCC(C)C)C(C)(C)C)c1 | No
* COc1cccc(C(=O)NN(C(=O)c2ccccc2Cl)C(C)(C)C)c1C | Yes
* CCc1ccc(C(=O)NN(C(=O)C2CC=CCC2)C(C)(C)C)cc1 (stereo not drawn) | No
* CCc1ccccc1C(=O)N(NC(=O)c1ccccc1)C(C)(C)C | No
* CC(C)(C)N(NC(=O)c1ccccc1F)C(=O)c1ccccc1Cl | Yes
* O=C(NN(CC1CCCCC1)C(=O)c1ccccc1)c1ccccc1 | No
* COc1ccccc1C(=O)N(NC(=O)c1ccccc1)C(C)(C)C | No
* CN(NC(=O)c1ccccc1)C(=O)c1ccccc1 | No
* CCCCC(=O)NN(C(=O)c1cc(C)cc(C)c1)C(C)(C)C | No

This collection of values is drawn from ChEMBL document CHEMBL3045195.
